Tested on: NIH3T3 mouse embryo fibroblasts
assay_summary: MTT cytotoxicity assay, NIH3T3
Assay type: cell-based
conditions_used: 24 h
Method: Cytotoxicity was assessed using the MTT assay. Briefly, the cells were seeded into a 96-well plate at a density of 1×10^5 cells per well in 100 µL of corresponding media and incubated at 37 °C in an incubator under 5% CO2 tension for 24 h. […] The absorbance was measured at 570 nm using a spectrophotometric plate reader (Molecular Devices, Sunnyvale, CA, USA).

compound	LD50 Based on MTT Assay, NIH3T3
Cc1cc2c(c(C)c1CCOC1OC(CO)C(O)C(O)C1O)C(=O)C(C)C2 [(2R)-Pteroside B, (2R)-pteroside B]	>5,000 µM
Cc1cc2c(c(C)c1CCO[C@@H]1O[C@H](CO)[C@@H](O)[C@H](O)[C@H]1O)C(=O)[C@@H](C)[C@H]2O [(2S,3R)-Pteroside C, (2S,3R)-pteroside C]	>5,000 µM
Cc1cc2c(c(C)c1CCO)C(=O)C(C)(C)C2 [Pterosin Z, pterosin Z]	553 ± 37 µM
Cc1cc2c(c(C)c1CCO)C(=O)[C@H](C)[C@H]2O [(2R,3R)-Pterosin C, (2R,3R)-pterosin C]	>5,000 µM
Cc1cc2c(c(C)c1CCOC1OC(CO)C(O)C(O)C1O)C(=O)C(C)C2O [(2R,3R)-Pteroside C, (2R,3R)-pteroside C]	>5,000 µM
Cc1c(CCO)c(CO)cc2c1C(=O)[C@@H](C)C2 [(2S)-Pterosin P, (2S)-pterosin P]	>5,000 µM
Cc1cc2c(c(C)c1CCOC1OC(CO)C(O)C(O)C1O)C(=O)C(C)(C)C2O [(3S)-Pteroside D, (3S)-pteroside D]	>5,000 µM

====

Test system: SH-SY5Y human neuroblastoma
assay_summary: MTT cytotoxicity assay, SH-SY5Y
Assay type: cell-based
conditions_used: 24 h

compound	target_under_test	LD50 Based on MTT Assay, SY-SY5Y
Cc1cc2c(c(C)c1CCOC1OC(CO)C(O)C(O)C1O)C(=O)C(C)C2O [(2R,3R)-Pteroside C, (2R,3R)-pteroside C]	SH-SY5Y human neuroblastoma	>5,000 µM
Cc1cc2c(c(C)c1CCO)C(=O)C(C)(C)C2	SH-SY5Y human neuroblastoma	495 ± 24 µM
Cc1c(CCO[C@@H]2O[C@H](CO)[C@@H](O)[C@H](O)[C@H]2O)c(CO)cc2c1C(=O)[C@@H](C)C2 [(2S)-Pteroside P, (2S)-pteroside P]	SH-SY5Y human neuroblastoma	1,090 ± 99 µM
Cc1cc2c(c(C)c1CCO)C(=O)C(C)(C)C2O (stereo in doubt)	SH-SY5Y human neuroblastoma	>5,000 µM

Source of measurements: paper PMC6372667
